All values here come from patent US20260015344A1.

# target_or_system: KRas^G12C (Homo sapiens, UniProt P01116, G12C)
# Construct: corresponding to amino acids 1-169, produced at Accelegan Inc; biotin (biotinylated); purchased Accelegan Inc
# Sequence (P01116 1-169 isoform P01116-2 G12C): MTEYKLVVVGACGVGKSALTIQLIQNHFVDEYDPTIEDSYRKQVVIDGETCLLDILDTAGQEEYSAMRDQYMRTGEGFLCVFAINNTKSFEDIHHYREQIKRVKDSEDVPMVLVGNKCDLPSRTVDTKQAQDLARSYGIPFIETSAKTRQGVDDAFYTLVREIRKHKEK
# test_details: KRas Binding Assay (TR-FRET displacement), KRas G12C
# condition_description: TR-FRET tracer displacement
measure: IC50 (nM)

P = C[C@H](Oc1nc(-c2noc(C3(C)CCCc4sc(N)c(C#N)c43)n2)cc(N2CCCC3(CNS(=O)(=O)N3)C2)n1)[C@@H]1CCCN1C (stereo partly drawn)
Q = C[C@H](Oc1nc(-c2noc(C3(C)CCCc4sc(N)c(C#N)c43)n2)cc(N2CCCn3nc(C(=O)N(C)C)cc3C2)n1)[C@@H]1CCCN1C (stereo partly drawn)
R = C[C@H](Oc1nc(-c2cc(C3(C)CCCc4sc(N)c(C#N)c43)sn2)cc(N2C[C@@H]3C[C@H](C2)[C@H](O)C3)n1)[C@@H]1CCCN1C (stereo partly drawn)
Asked: Sort the listed compounds above so the one with the largest IC50 comes first and the smallest comes last. Put the labels in the requested order and write them down.
Given back: Q, R, P

---

# target_or_system: KRas^WT (Homo sapiens)
# Construct: corresponding to amino acids 1-169, produced at Accelegan Inc; biotin (biotinylated); purchased Accelegan Inc
# Sequence (P01116 1-169 isoform P01116-2): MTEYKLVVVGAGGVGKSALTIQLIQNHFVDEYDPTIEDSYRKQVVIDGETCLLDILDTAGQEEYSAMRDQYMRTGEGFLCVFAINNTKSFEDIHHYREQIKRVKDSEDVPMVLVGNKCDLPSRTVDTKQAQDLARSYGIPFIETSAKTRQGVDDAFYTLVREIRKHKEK
# test_details: KRas Binding Assay (TR-FRET displacement), KRas WT
# condition_description: TR-FRET tracer displacement
measure: IC50 (nM)

Example compounds with recorded IC50:
C[C@H](Oc1nc(-c2cc(C3(C)CCCc4sc(N)c(C#N)c43)sn2)cc(N2CCCC3(CNS(=O)(=O)N3)C2)n1)[C@@H]1CCCN1C (stereo partly drawn) [Example 10]: 31
C[C@H](Oc1nc(-c2noc(C3(C)CCCc4sc(N)c(C#N)c43)n2)cc(N2CCCC3(C2)NC(=O)NC3=O)n1)[C@@H]1CCCN1C (stereo partly drawn) [Example 2]: 14
C[C@H](Oc1nc(-c2cc(C3(C)CCCc4sc(N)c(C#N)c43)sn2)cc(N2C[C@@H]3C[C@H](C2)[C@H](O)C3)n1)[C@@H]1CCCN1C (stereo partly drawn) [Example 8]: 160

P = C[C@H](Oc1nc(-c2cc(C3(C)CCCc4sc(N)c(C#N)c43)sn2)cc(N2CCCC3(C2)NC(=O)NC3=O)n1)[C@@H]1CCCN1C (stereo partly drawn) [Example 11]
Q = C[C@H](Oc1nc(-c2noc(C3(C)CCCc4sc(N)c(C#N)c43)n2)cc(N2CCCn3nc(C(=O)N(C)C)cc3C2)n1)[C@@H]1CCCN1C (stereo partly drawn) [Example 6]
R = C[C@H](Oc1nc(-c2noc(C3(C)CCCc4sc(N)c(C#N)c43)n2)cc(N2C[C@@H]3C[C@H](C2)[C@H](O)C3)n1)[C@@H]1CCCN1C (stereo partly drawn) [Example 5]
Asked: Place the items in sequence of falling IC50. Put the labels in the requested order and write them down.
Given back: Q, P, R

---

# target_or_system: KRas^G12S (Homo sapiens, UniProt P01116, G12S)
# Construct: corresponding to amino acids 1-169, produced at Accelegan Inc; biotin (biotinylated); purchased Accelegan Inc
# Sequence (P01116 1-169 isoform P01116-2 G12S): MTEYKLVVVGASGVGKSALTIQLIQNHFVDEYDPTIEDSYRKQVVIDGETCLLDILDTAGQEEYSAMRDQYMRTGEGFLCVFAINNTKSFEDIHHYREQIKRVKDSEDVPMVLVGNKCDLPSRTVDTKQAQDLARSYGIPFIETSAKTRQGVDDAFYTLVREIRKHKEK
# test_details: KRas Binding Assay (TR-FRET displacement), KRas G12S
# condition_description: TR-FRET tracer displacement
measure: IC50 (nM)

C[C@H](Oc1nc(-c2cc(C3(C)CCCc4sc(N)c(C#N)c43)sn2)cc(N2CCCC3(C2)NC(=O)NC3=O)n1)[C@@H]1CCCN1C (stereo partly drawn) [Example 11]: 188

1 = C[C@H](Oc1nc(-c2noc(C3(C)CCCc4sc(N)c(C#N)c43)n2)cc(N2CCCn3nc(C(=O)N(C)C)cc3C2)n1)[C@@H]1CCCN1C (stereo partly drawn) [Example 6]
2 = C[C@H](Oc1nc(-c2noc(C3(C)CCCc4sc(N)c(C#N)c43)n2)cc(N2C[C@@H]3C[C@H](C2)[C@H](O)C3)n1)[C@@H]1CCCN1C (stereo partly drawn) [Example 5]
3 = C[C@H](Oc1nc(-c2noc(C3(C)CCCc4sc(N)c(C#N)c43)n2)cc(N2CCCC3(C2)NC(=O)NC3=O)n1)[C@@H]1CCCN1C (stereo partly drawn) [Example 2]
4 = C[C@H](Oc1nc(-c2noc(C3(C)CCCc4sc(N)c(C#N)c43)n2)cc(N2CCCC3(CNS(=O)(=O)N3)C2)n1)[C@@H]1CCCN1C (stereo partly drawn) [Example 4]
5 = C[C@H](Oc1nc(-c2cc(C3(C)CCCc4sc(N)c(C#N)c43)sn2)cc(N2CCC[C@@](C)(O)C2)n1)[C@@H]1CCCN1C (stereo partly drawn) [Example 7]
Asked: Form: Sort by [IC50] Order [ ascending ] Put the labels in the requested order and write them down.
Given back: 4, 3, 5, 2, 1
(4: 23 nM, 3: 41 nM, 5: 158 nM, 2: 265 nM, 1: 1520 nM)

1 = C[C@H](Oc1nc(-c2cc(C3(C)CCCc4sc(N)c(C#N)c43)sn2)cc(N2CCCn3nc(C(=O)N(C)C)cc3C2)n1)[C@@H]1CCCN1C (stereo partly drawn) [Example 12]
2 = C[C@H](Oc1nc(-c2cc(C3(C)CCCc4sc(N)c(C#N)c43)sn2)cc(N2C[C@@H]3C[C@H](C2)[C@H](O)C3)n1)[C@@H]1CCCN1C (stereo partly drawn) [Example 8]
3 = C[C@H](Oc1nc(-c2cc(C3(C)CCCc4sc(N)c(C#N)c43)sn2)cc(N2CCCC3(CNS(=O)(=O)N3)C2)n1)[C@@H]1CCCN1C (stereo partly drawn) [Example 10]
4 = C[C@H](Oc1nc(-c2noc(C3(C)CCCc4sc(N)c(C#N)c43)n2)cc(N2CCC[C@@](C)(O)C2)n1)[C@@H]1CCCN1C (stereo partly drawn) [Example 1]
Asked: Form: Sort by [IC50] Order [ ascending ] Put the labels in the requested order and write them down.
Given back: 3, 4, 2, 1
